// data source = patent US20120316071A1

# TARGET OF ASSAY: T1, Recombinant Human DLL4 (delta-like protein 4) (human, UniProt Q9NR61 27-524)
# T1 construct: Bought recombinant human DLL4 coated on the ELISA plate; also called rHuman DLL4
# PROTOCOL NOTES: ELISA, DLL4 coated on plate, Fab at 12.5 nM (2-fold dilution series), absorbance at 450 nm
MEASUREMENT LABEL: ELISA signal
Give a plain numeric answer without units written out.

Fab VH5-51_IGHD5-18*01>3_IGHJ4*01 G100K/G104T G24L/S28R/G35V (KT LRV) & V3-4_IGLJ1*01 V91L/S96P S52T (Fab, V domains shown, Fab; Expressed in E. coli with CH1 (plasmid A, His6 and Flag tags) and lambda CL (plasmid E); also called G100K/G104T G24L/S28R/G35V & V91L/S96P S52T) VH: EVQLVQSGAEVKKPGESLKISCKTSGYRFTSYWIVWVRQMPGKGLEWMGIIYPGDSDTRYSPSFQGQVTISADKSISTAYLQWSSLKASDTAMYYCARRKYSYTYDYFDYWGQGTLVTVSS VL: QTVVTQEPSFSVSPGGTVTLTCGLSSGSVSTSYYPSWYQQTPGQAPRTLIYTTNTRSSGVPDRFSGSILGNKAALTITGAQADDESDYYCLLYMGPGISYVFGTGTKVTVL
0.41

Now for the binder whose ELISA signal we want.
[in] What does the record list as ELISA signal for Fab VH5-51_IGHD5-18*01>3_IGHJ4*01 G100K/G104T G24T/S28R/G35V (KT TRV) & V3-4_IGLJ1*01 V91L/S96P S52Y (Fab, V domains shown, Fab; Expressed in E. coli with CH1 (plasmid A, His6 and Flag tags) and lambda CL (plasmid E); also called H:KT TRV & L:LP S52Y) VH: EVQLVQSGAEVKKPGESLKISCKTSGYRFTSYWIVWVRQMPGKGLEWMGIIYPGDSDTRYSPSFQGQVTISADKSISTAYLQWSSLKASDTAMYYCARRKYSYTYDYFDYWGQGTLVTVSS VL: QTVVTQEPSFSVSPGGTVTLTCGLSSGSVSTSYYPSWYQQTPGQAPRTLIYYTNTRSSGVPDRFSGSILGNKAALTITGAQADDESDYYCLLYMGPGISYVFGTGTKVTVL ?
[out] 0.41
